What IC50 was measured for each of the following?
target: NHE-3 (Homo sapiens, UniProt P48764); test: Determination of the NHE-inhibitory effect (recovery of intracellular pH after acidification, BCECF fluorescence); settings: pH recovery recorded for three minutes with NHE-3; BCECF-loaded cells
Sequence (P48764 26-834, species assumed): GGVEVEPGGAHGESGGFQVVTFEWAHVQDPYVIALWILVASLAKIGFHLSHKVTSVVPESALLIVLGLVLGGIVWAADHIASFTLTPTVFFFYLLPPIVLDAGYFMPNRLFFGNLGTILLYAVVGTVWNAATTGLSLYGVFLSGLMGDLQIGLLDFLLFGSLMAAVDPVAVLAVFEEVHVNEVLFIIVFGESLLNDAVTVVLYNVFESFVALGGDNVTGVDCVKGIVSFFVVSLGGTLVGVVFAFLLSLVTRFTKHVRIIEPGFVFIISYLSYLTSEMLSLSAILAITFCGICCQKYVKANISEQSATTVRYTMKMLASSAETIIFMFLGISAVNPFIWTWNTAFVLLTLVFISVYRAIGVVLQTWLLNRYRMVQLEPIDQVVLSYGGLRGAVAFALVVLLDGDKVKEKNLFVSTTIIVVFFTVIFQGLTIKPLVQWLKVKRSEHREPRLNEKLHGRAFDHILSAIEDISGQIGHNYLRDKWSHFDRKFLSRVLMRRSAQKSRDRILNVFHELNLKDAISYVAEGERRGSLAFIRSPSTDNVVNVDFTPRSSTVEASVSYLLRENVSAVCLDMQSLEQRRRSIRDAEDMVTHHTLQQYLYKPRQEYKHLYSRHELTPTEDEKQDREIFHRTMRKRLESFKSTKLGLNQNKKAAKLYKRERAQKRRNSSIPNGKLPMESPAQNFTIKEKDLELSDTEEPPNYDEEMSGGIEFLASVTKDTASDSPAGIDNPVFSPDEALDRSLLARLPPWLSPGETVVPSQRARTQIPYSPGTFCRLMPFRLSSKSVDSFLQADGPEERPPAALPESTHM
Structures can show the parent of a compound that is named as a salt.
One number for each entry, in µM.

Use the examples below as a reference point.
>  <compound>
CCN(CC)C1=Nc2ccc(Cl)cc2C(c2ccc(N)cc2)C1 (stereo not shown) [Example 3, hydrochloride]

>  <IC50 (µM)>
9.19

$$$$
>  <compound>
CCNC1=Nc2ccc(Cl)cc2C(c2ccc(N)cc2)C1 (stereo not shown) [Example 2, hydrochloride]

>  <IC50 (µM)>
10.9

$$$$
>  <compound>
CCN(CC)C1=Nc2ccc(Cl)cc2C(c2ccc(NC(=O)NCCN(C)C)cc2)C1 (stereo not shown) [Example 4, hydrochloride]

>  <IC50 (µM)>
13.8

$$$$

Now, please, on to the next compound.
Challenge: Using the record for NC1=Nc2ccc(Cl)cc2C(c2ccc(N)cc2)C1 (stereo not shown) [Example 1, hydrochloride] , report its IC50.
Response given: 4.39
